- Test system: T47D
- measurementNotes: Antiproliferative activity against human T47D cells assessed as cell growth inhibition after 48 hrs by MTT assay
- Type: functional, cell-based
pIC50: −log10 of the molar value.

compound	cmp	pIC50
COc1ccc(-c2ccnc3nc(-c4cc(OC)c(OC)c(OC)c4)nn23)cc1N	<	4.00
COc1ccc(-c2nc3nccc(-c4cc(OC)c(OC)c(OC)c4)n3n2)cc1O	=	5.46
COc1ccc(-c2nc3nccc(-c4cc(OC)c(OC)c(OC)c4)n3n2)cc1NC(C)=O	=	5.25
COc1ccc(/C=C\c2cc(OC)c(OC)c(OC)c2)cc1O [COMBRETASTATIN A4]	=	7.57
COc1ccc(-c2nc3nccc(-c4cc(OC)c(OC)c(OC)c4)n3n2)cc1N	=	5.19

---

- systemTested: Tubulin
- measurementNotes: Inhibition of tubulin polymerization (unknown origin) measured afer 30 mins every 1 min for 20 mins by spectrophotometric method

cpdSmiles	resultUnits	IC50
COc1ccc(-c2nc3nccc(-c4cc(OC)c(OC)c(OC)c4)n3n2)cc1N	µM	12.2
COc1ccc(-c2nc3nccc(-c4cc(OC)c(OC)c(OC)c4)n3n2)cc1O	µM	1.3

---

- systemTested: Tubulin (Homo sapiens) (UniProt P68371+Q9H4B7+P0DPH7+P68366+Q13509+Q71U36+P04350+Q3ZCM7+P07437+P68363+Q9BQE3+Q6PEY2+Q13885+Q9BVA1+Q9BUF5)
- measurementNotes: Inhibition of tubulin polymerization (unknown origin) at 10 uM measured after 30 mins every 1 min for 20 mins by spectrophotometric method
- Format: protein-complex assay
List of inhibition values.
quantityKind: inhibition (%)

cpdSmiles	resultUnits	measured
COc1ccc(-c2nc3nccc(-c4cc(OC)c(OC)c(OC)c4)n3n2)cc1N	%	49
COc1ccc(-c2nc3nccc(-c4cc(OC)c(OC)c(OC)c4)n3n2)cc1NC(C)=O	%	16
COc1ccc(-c2nc3nccc(-c4cc(OC)c(OC)c(OC)c4)n3n2)cc1O	%	94
COc1ccc(-c2ccnc3nc(-c4cc(OC)c(OC)c(OC)c4)nn23)cc1N	%	12

Each recorded value in this set is attributed to ChEMBL document CHEMBL4837193.
